# experimental target: T1, mouse CTGF (Abbexa) (mouse, UniProt P29268 26-348, limits assumed)
# T1 construct: also called Murine CTGF; mCTGF
# T1 sequence (looked up): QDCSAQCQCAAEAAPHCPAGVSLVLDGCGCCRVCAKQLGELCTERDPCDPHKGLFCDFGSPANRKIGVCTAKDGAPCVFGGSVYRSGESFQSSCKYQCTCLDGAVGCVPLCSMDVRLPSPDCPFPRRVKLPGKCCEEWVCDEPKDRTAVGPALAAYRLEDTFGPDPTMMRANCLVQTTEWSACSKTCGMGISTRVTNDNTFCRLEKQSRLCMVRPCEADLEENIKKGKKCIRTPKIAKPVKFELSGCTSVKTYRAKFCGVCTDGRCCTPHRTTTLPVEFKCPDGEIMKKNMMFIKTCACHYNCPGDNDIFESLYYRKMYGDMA
# test protocol: SPR (Biacore)
Kindly supply the reported koff values for the records listed here.
Give bare numbers, in s⁻¹.

binder	quantity name	unit label	endpoint result
lipocalin mutein of SEQ ID NO: 16 (designed binder, also called hNGAL mutein; not shown: C-terminal His-tag) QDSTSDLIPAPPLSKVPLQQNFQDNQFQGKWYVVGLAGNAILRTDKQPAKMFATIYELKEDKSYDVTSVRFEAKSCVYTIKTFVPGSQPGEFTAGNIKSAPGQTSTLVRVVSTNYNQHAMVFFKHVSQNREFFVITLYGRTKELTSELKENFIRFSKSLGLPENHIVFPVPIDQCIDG	koff	s⁻¹	6.34e-05
lipocalin mutein of SEQ ID NO: 28 (designed binder, also called hNGAL mutein; not shown: C-terminal His-tag) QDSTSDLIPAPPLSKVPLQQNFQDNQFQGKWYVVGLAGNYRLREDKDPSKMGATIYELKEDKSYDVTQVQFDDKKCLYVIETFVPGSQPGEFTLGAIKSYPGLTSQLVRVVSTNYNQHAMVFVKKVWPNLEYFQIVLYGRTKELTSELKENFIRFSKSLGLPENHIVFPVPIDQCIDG	koff	s⁻¹	8.23e-05

// next entry
Input line: For the binder lipocalin mutein of SEQ ID NO: 24 (designed binder, also called hNGAL mutein) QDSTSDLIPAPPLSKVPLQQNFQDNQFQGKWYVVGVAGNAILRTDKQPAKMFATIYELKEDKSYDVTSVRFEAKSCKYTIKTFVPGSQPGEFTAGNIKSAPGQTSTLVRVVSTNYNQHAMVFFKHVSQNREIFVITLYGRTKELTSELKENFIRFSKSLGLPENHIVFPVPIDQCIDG , what koff is on record?
Output line: 1.16e-05
